Data provenance: patent US7169932B2

The following molecules are shown together with reported Ki values.
Target: HIV-1 protease (Q7S) (Human immunodeficiency virus type 1 group M subtype B, UniProt P04585, Q495S)
Construct: made in house
Assay: HIV-1 Protease RET Assay
Assay type: biochemical
Conditions: Ave. Ki (nM), RET assay, Q7S enzyme, pH 4.8, 37 C
State just the number; it will be interpreted in nM.

Prompt: Would you kindly share the measured Ki for "Cc1c(O)cccc1C(=O)N[C@@H](Cc1ccccc1)[C@H](O)C(=O)N1CSC(C)(C)[C@H]1C(=O)NCc1ccc(OC(F)(F)F)cc1" ?
Response: 2.3

Prompt: Would you mind doing "Cc1ccsc1CNC(=O)[C@H]1N(C(=O)[C@@H](O)[C@H](Cc2ccccc2)NC(=O)c2cccc(O)c2C)CSC1(C)C" as well?
Response: 0.23

Prompt: And the next one, "CC/C=C/CNC(=O)[C@H]1N(C(=O)[C@@H](O)[C@H](Cc2ccccc2)NC(=O)c2cccc(O)c2C)CSC1(C)C" ?
Response: 0.59

Prompt: What do you get for "Cc1ccccc1CNC(=O)[C@H]1N(C(=O)[C@@H](O)[C@H](Cc2ccccc2)NC(=O)c2cccc(N)n2)CSC1(C)C" ?
Response: 2.8

----------
Target: HIV-1 protease (Q7S) (Human immunodeficiency virus type 1 group M subtype B, UniProt P04585, Q495S)
Construct: made in house
Assay: HIV-1 Protease RET Assay
Type: biochemical
Conditions: RET assay, Q7S enzyme, pH 4.8, 37 C; read-out: Ave. Ki
Measured metric: Ki (nM)
Reply with just the number (in nM).

Consider the worked cases shown below.
Cc1ccccc1CNC(=O)[C@H]1N(C(=O)[C@@H](O)[C@H](Cc2ccccc2)NC(=O)N2CC[C@@H](O)C2)CSC1(C)C [Example B1]
2.5
Cc1c(O)cccc1C(=O)N[C@@H](Cc1ccccc1)[C@H](O)C(=O)N1CSC(C)(C)[C@H]1C(=O)NCc1ccc2c(c1)OC(F)(F)O2 [Example A48]
0.19

Next molecule, Ki to be filled in.
Prompt: May I ask what Ki has been recorded for C=CCNC(=O)[C@H]1N(C(=O)[C@@H](O)[C@H](Cc2ccccc2)NC(=O)c2cc(C)cc(O)c2C)CSC1(C)C [Example D4] ?
Response: 0.7

----------
Tested on: HIV-1
Test: Cytopathic Effect (CPE) Inhibition Assay (XTT dye reduction)
Type: cell-based
Conditions: Human immunodeficiency virus 1
Measured metric: EC50 (nM)
Give your result in nM as a bare value.

Cc1cccc(CNC(=O)[C@H]2N(C(=O)[C@@H](O)[C@H](Cc3ccccc3)NC(=O)c3cccc(O)c3C)CSC2(C)C)c1
76
COc1ccccc1C(=O)N[C@@H](Cc1ccccc1)[C@H](O)C(=O)N1CSC(C)(C)[C@H]1C(=O)NCc1ccccc1C
1490
Cc1ccc(CNC(=O)[C@H]2N(C(=O)[C@@H](O)[C@H](Cc3ccccc3)NC(=O)c3cccc(O)c3C)CSC2(C)C)cc1
141

Continue with the next compound.
Prompt: Can you share its EC50? I mean this compound: "Cc1c(Cl)cccc1CNC(=O)[C@H]1N(C(=O)[C@@H](O)[C@H](Cc2ccccc2)NC(=O)c2cccc(O)c2C)CSC1(C)C"
Response: 113

----------
Target: HIV-1 protease (Q7S) (Human immunodeficiency virus type 1 group M subtype B, UniProt P04585, Q495S)
Construct: made in house
Assay: HIV-1 Protease RET Assay
Assay type: biochemical
Details: Ave. Ki (nM), RET assay, Q7S enzyme, pH 4.8, 37 C
Description: Ki's for the inhibitors of HIV-1 protease were determined using a resonance energy transfer (RET) assay. […] This enzyme is first partially purified as inclusion bodies from cell lysate. […] The commercially available peptide substrate (Molecular Probes Cat. # H-2930) RE(EDANS)SQNYPIVQK(DABCYL)R is used to assess activity and Ki's. This peptide is cleaved quantitatively by HIV-1 Pr at the Tyr-Pro bond. […]
Consider the following compounds and their measured Ki readings.
Only the number, expressed in nM, is required.

Cc1c(O)cccc1C(=O)N[C@@H](Cc1ccccc1)[C@H](O)C(=O)N1CSC(C)(C)[C@H]1C(=O)NCc1ccc(S(C)(=O)=O)cc1
44.1

Now look at this entry.
Prompt: Sample "Cc1ccccc1CNC(=O)[C@@H]1[C@@H](C)OCN1C(=O)[C@@H](O)[C@H](Cc1ccccc1)NC(=O)c1cccc(O)c1C" — what was its Ki?
Response: 3.2
